system: NCI-H522 lung; assay: NCI tumour cell line growth inhibition, 48 h
Non-standard residues stand in square brackets, D forms with d. Residues, ends and D or L forms follow the SMILES beside them. *: point of attachment. hSer = N[CH](CCO)C(=O)O; Boc = CC(C)(C)OC(=O)*
propertyLabel: TGI

COC(=O)C1CCC(=O)N1C(c1ccc(OC)cc1)c1ccc(OC)cc1 (centres undefined): > 100 µM
CCc1cccc(C(C)C)c1NC(=O)C(=O)C(CC(=O)Nc1ccc(Cl)c(Cl)c1)C(=O)OC (centres undefined): > 100 µM
N=C(N)SCc1ccc(Cl)cc1Cl (tested in a mixture with another compound): 30.8 µM
O=C(O)c1cn2c3c(cc(N4CCN(CCO)CC4)cc3c1=O)SCC2: 94.2 µM
CC(=O)c1ccc(NC(=O)C(=O)Nn2c(=S)[nH]c3ccccc3c2=O)cc1: > 100 µM

For each of the molecules below, state TGI.
1. CCOC(=O)C(O)(NC(=O)c1ccccc1F)C(F)(F)F (centres undefined)
2. COc1ccc(Nc2c3ccccc3nc3ccccc23)cc1
3. COCCC(NC(=O)C(CC(C)C)NC(=O)OC(C)(C)C)C(=O)OC (stereo not drawn) (Boc-Leu-[hSer](Me)-OMe; configuration not given here)
4. COc1cc2c3c(c1OC)-c1c(ccc4c1OCO4)CC3(C#N)N(C(=O)c1ccccc1)CC2 (centres undefined)

A:
["> 100 µM", "15.7 µM", "80.1 µg/mL", "> 100 µM"]
